# Test system: SN12C renal
# assay: NCI tumour cell line growth inhibition, 48 h
readout.type: GI50

Known GI50 results, listed for orientation:
O=C(c1ccccc1)c1nn(-c2ccc(Cl)cc2)c2nc3nc(-c4ccccc4)cc(=O)n3nc12
24 µM
COc1cc(-c2cc(C(=O)N3CCN(C(=O)c4ccccc4NCc4ccco4)CC3)nc3cc(-c4ccccc4)nn23)cc(OC)c1OC
6.7 µM
Cc1ccc(-c2c(C#N)c(N)nc(N3CCOCC3)c2C#N)o1
41.6 µM

Query block: I am curious: what GI50 value has been reported for COc1cc[nH]c1/C=C1\C(=O)Nc2ccc(F)c(C#C[C@@H](O)[C@@H](N)[C@@H](C)O)c21 ?
Result block: 0.51 µM

----------
# Tested on: OVCAR-3 ovarian
# assay: NCI tumour cell line growth inhibition, 48 h
Property: TGI; scope: individual compounds

The cases that follow already have their TGI on record.
CC(=O)Nc1ccc(Nc2cc(=O)n(C)c(=O)[nH]2)cc1
> 100 µM
Cc1c2c(c(C)n1-c1ccccc1)C(=O)N(CCSC(=N)N)C2=O
> 100 µM
CC[C@@H](CCCC[C@@H]1CC[C@H]2CC(=O)C[C@@H]12)OC
> 100 µM
CC(=O)Oc1c(C)n(CCCl)ccc1=O
> 100 µM
O=C1CC2CC=C[C@H]3c4cc5c(cc4C(=O)N1C23)OCO5 (stereo partly drawn)
> 50 µM
Cc1cc2nc(N3C(=O)/C(=C/c4cccc([N+](=O)[O-])c4)N=C3c3ccccc3)sc2cc1C
> 100 µM
COc1ccc(-c2oc3cc(O)c(OC)c(O)c3c(=O)c2OC2OC(CO)C(O)C(O)C2O)cc1 (stereo not drawn)
> 100 µM
CN1CCN(c2nc3ccccc3nc2C(=O)c2ccc(Cl)cc2)CC1
> 100 µM
Cc1ccc(S(=O)(=O)N2CCCSCCSCCCSCC2)cc1
> 100 µM
Nc1ccn(C=C=CCO)c(=O)n1
> 1000 µM

Query block: Requested read-out TGI, target or system OVCAR-3 ovarian, entry O/N=C1\CCc2cc(-c3nc(C4CCNCC4)[nH]c3-c3ccncc3)ccc21
Result block: > 25 µM

Query block: Value wanted: TGI (OVCAR-3 ovarian) of entry COC(=O)c1cnc(=O)n(C2CC(O)C(CO)O2)c1 (stereo not drawn)
Result block: > 100 µM

Query block: Lab request: please report TGI under test system OVCAR-3 ovarian for COc1cc2c(cc1OC)C1Cc3ccccc3CCN1CC2 (stereo not drawn)
Result block: > 100 µM

----------
# Test system: M14 melanoma
# assay: NCI tumour cell line growth inhibition, 48 h
# TGI per entry

CC[C@@H](CCCC[C@@H]1CC[C@H]2CC(=O)C[C@@H]12)OC
> 100 µM

Query block: Can you look up the measured TGI of CCCCCCC(=O)C/C(CCC(=O)N(Cc1ccccc1)Cc1ccccc1)=N\Nc1ccc([N+](=O)[O-])cc1[N+](=O)[O-] for me?
Result block: > 100 µM

Query block: Recorded TGI for CCCCOC(=O)C(=O)C(CC(C(=O)Cc1ccccc1)c1ccccc1)C(=O)C=C(C)C (stereo not drawn) , please?
Result block: > 100 µM

Query block: Which TGI value is on record for O/N=C1/C(=C/c2ccc(F)cc2)CCCC1C(NO)c1ccc(F)cc1 (stereo not drawn) ?
Result block: > 100 µM

Query block: Suppose we examine the compound Nc1nc(Cl)c(C=O)c(NCC2(CO)CC(CCc3ccccc3)C2)n1 (stereo not drawn) ; what TGI value has been reported?
Result block: 6.25 µM

Query block: Item under review: N#C/C(=C1\N=C(c2ccccc2O)Oc2ccccc21)c1ccc([N+](=O)[O-])cc1 . Reported TGI?
Result block: > 100 µM

Query block: Consider the compound shown here: O=C(c1ccc(Cl)cc1Cl)N(Cc1cccnc1)C(=S)N(Cc1cccnc1)C(=O)c1ccc(Cl)cc1Cl What is its recorded TGI?
Result block: 9.26 µM

Query block: Entry COc1cc(C2C(Cl)C(=O)N2n2cnc3ccccc3c2=O)cc(OC)c1OC (stereo not drawn) : reported TGI = ?
Result block: > 100 µM

Query block: I have this compound here, CC1=COC(=O)c2ccccc2N1 , and I need its recorded TGI.
Result block: > 100 µM

Query block: Returns the measured TGI for the input compound. Input: ClC(=Nc1cccc2ccccc12)N(c1ccccc1)c1ccccc1
Result block: > 100 µM

Query block: Quick one: TGI for O=S(=O)(c1ccc(NC(=S)N/N=C/c2ccccc2O)cc1)N1CCCCC1 ?
Result block: 2.78 µM

Query block: Using the record for CCCCN(CCCC)C(=O)C(=O)CC(=O)c1ccc(Br)cc1 , report its TGI.
Result block: > 100 µM

Query block: Recorded TGI for CCOc1ccc(N2C(=O)C3c4[nH]c5ccccc5c4C4CCC(C(C)(C)C)CC4C3C2=O)cc1 (stereo not drawn) , please?
Result block: > 100 µM

Query block: I would be grateful if you could share the reported TGI for COc1cc(N(CCC#N)CCC#N)ccc1/C(N=Nc1ccc(C)cc1)=N/NC(=O)c1cc(Br)ccc1O .
Result block: > 100 µM

Query block: Entry O=C1/C(=C\c2ccc([N+](=O)[O-])cc2)Sc2scc(-c3ccc(O)c(O)c3)[n+]21 : reported TGI = ?
Result block: 27.4 µM

Query block: Find the recorded TGI belonging to O=C(Nc1n[nH]c2nc(-c3ccco3)c(Br)cc12)C1CC1 and report it.
Result block: > 25 µM

Query block: Please give the measured TGI for this compound: Nc1ccn(C=C=CCO)c(=O)n1
Result block: > 1000 µM

Query block: Given the compound N=C(/C=C/c1ccc(-c2cn3cc(/C=C/C(=N)N4CCCC4)ccc3n2)cc1)N1CCCC1 , what is its reported TGI?
Result block: > 100 µM

Query block: Dear colleague, I am looking for the recorded TGI of the following compound: FC(F)(F)P1C2C=CC(CC2)C1(F)F (stereo not drawn)
Result block: > 100 µM

Query block: Give the measured TGI of CC(=O)Oc1ccccc1[C@H]1CC(=O)C[C@H](c2ccccc2OC(C)=O)C12C(=O)c1ccccc1C2=O .
Result block: 70.9 µM

Query block: Data request, read-out TGI, for Oc1c(C2=NNC(c3cccs3)C2)ccc2ccccc12 (stereo not drawn)
Result block: 32.5 µM

Query block: Fill blank: measured TGI of the compound COc1cc2c(cc1OC)C(=O)C(Br)CC2 (stereo not drawn) is ____.
Result block: 7.1 µM

Query block: Reported TGI, compound CCN(CC)CCNC(=O)c1ccc([N+](=O)[O-])cc1OC : ____
Result block: > 100 µM

Query block: Please give the measured TGI for this compound: CCC1(OC(=O)CN2CCN(CCO)CC2)C(=O)OCc2c1cc1n(c2=O)Cc2cc3ccccc3nc2-1 (stereo not drawn)
Result block: 1.92 µM

Query block: For Cc1ccc2c(c1)NC(c1ccc(C(=O)O)cc1)c1cccn1-2 (stereo not drawn) , what is its reported TGI?
Result block: > 100 µM

----------
# Test system: EKVX NSCLC
# assay: NCI tumour cell line growth inhibition, 48 h
Quick list: TGI per entry.

O=c1[nH]c2cc(C(F)(F)F)ccc2nc1Cc1ccccc1
> 100 µM
CC[C@@H]1CN2CCC1C[C@@H]2C(O)c1ccnc2ccc(OCCN3CCN(CCOc4ccc5nccc(C(O)[C@@H]6C[C@@H]7CCN6C[C@@H]7CC)c5c4)CC3)cc12 (stereo partly drawn)
31.2 µM

Query block: Record request: TGI value, item O=[N+]([O-])c1ccc(-c2ccc(/C=N/n3c(-c4ccc(Cl)cc4)n[nH]c3=S)o2)cc1
Result block: > 100 µM

----------
# Tested on: MCF7 breast
# assay: NCI tumour cell line growth inhibition, 48 h
readout.type: TGI

# example entries with known answers
CCOC(=O)N1CCN(Cc2cc(=O)n3cc(C)ccc3n2)CC1
> 100 µM
Nc1cccc2c1C(=O)N(C1CCC(=O)NC1=O)C2=O (stereo not drawn)
> 100 µM

Now for another entry.
Query block: Sample Cc1c2c(c(C)n1-c1ccccc1)C(=O)N(CCSC(=N)N)C2=O — what was its TGI?
Result block: > 100 µM

----------
# System: DU-145 prostate
# assay: NCI tumour cell line growth inhibition, 48 h
readout.type: TGI

Below: 8 compounds and their reported TGI.
O=C(Nc1n[nH]c2nc(-c3ccco3)c(Br)cc12)C1CC1
> 25 µM
CN(C)CCOc1ccc(I)cc1Cc1ccccc1
31.6 µM
O=C1C2CC(Cl)C(SSC3CC4C(=O)N(SC(Cl)(Cl)C(Cl)Cl)C(=O)C4CC3Cl)CC2C(=O)N1SC(Cl)(Cl)C(Cl)Cl (stereo unspecified)
9.44 µM
NCC(O)CNCC/C=C\C/C=C\C/C=C\C/C=C\C/C=C\C/C=C\CCCCC/C=C\CCNCC(O)CN (stereo unspecified)
3.26 µM
Cc1cc(S(N)(=O)=O)c(SCc2nc(N)nc(N(C)C)n2)cc1Cl
> 10 µM
Cc1nc(-c2ccccc2)c(C)n2c1nc1ccccc12
> 100 µM
CC(=O)Oc1ccccc1[C@H]1CC(=O)C[C@H](c2ccccc2OC(C)=O)C12C(=O)c1ccccc1C2=O
> 100 µM
N#Cc1ncn(-c2ccccc2)c1N
> 100 µM

Query block: What value of TGI on DU-145 prostate does COc1ccccc1C(=O)/C=C/c1cc2cccc(OC)c2[nH]c1=O have?
Result block: 0.714 µM

Query block: Request - read-out TGI | tested on DU-145 prostate | compound O=C1CC(=O)N(C2CCCCC2)C(=O)N1c1ccccc1S(=O)(=O)Oc1ccccc1
Result block: > 100 µM

Query block: # returns recorded TGI (system: DU-145 prostate) for O=[N+]([O-])c1ccc(N/N=C\c2cc(Cl)ccc2O)nc1
Result block: 13.1 µM

Query block: Query TGI on DU-145 prostate for CN1CCN(c2nc3ccccc3nc2C(=O)c2ccc(Cl)cc2)CC1
Result block: > 100 µM

Query block: Please provide the recorded TGI for O=C(c1ccccc1)c1nn(-c2ccc(Cl)cc2)c2nc3nc(-c4ccccc4)cc(=O)n3nc12 , tested on DU-145 prostate.
Result block: > 100 µM

Query block: Which measured TGI belongs to O=c1c(Cl)nnc2sc3ccccc3n12 , tested on DU-145 prostate?
Result block: > 100 µM
